Attribute: self-cleavage
B1: Hairpin Ribozyme (parent)
chain: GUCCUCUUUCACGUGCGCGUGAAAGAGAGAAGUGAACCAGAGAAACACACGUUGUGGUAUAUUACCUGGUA

# Variants of: B1
# PROCEDURE DETAILS: self-cleavage, relative activity (ratio to wild type); higher = more cleavage; co-transcriptional

Take a look at these entries with their results.
>>> observed("C4A G40C")
0.0835
>>> observed("U7C A36G")
0.925
>>> observed("C3A G17A")
0.785
>>> observed("A43G C48A")
0.174

Value lookup for self-cleavage; key = C16A G17C
0.85

Value lookup for self-cleavage; key = G25A U67C
0.166

Value lookup for self-cleavage; key = A22C G34U
1.49
